Property: log10(IC50); scope: individual compounds
Target: Mucosa-associated lymphoid tissue lymphoma translocation protein 1 (Homo sapiens, UniProt Q9UDY8)
Sequence (Q9UDY8 whole entry): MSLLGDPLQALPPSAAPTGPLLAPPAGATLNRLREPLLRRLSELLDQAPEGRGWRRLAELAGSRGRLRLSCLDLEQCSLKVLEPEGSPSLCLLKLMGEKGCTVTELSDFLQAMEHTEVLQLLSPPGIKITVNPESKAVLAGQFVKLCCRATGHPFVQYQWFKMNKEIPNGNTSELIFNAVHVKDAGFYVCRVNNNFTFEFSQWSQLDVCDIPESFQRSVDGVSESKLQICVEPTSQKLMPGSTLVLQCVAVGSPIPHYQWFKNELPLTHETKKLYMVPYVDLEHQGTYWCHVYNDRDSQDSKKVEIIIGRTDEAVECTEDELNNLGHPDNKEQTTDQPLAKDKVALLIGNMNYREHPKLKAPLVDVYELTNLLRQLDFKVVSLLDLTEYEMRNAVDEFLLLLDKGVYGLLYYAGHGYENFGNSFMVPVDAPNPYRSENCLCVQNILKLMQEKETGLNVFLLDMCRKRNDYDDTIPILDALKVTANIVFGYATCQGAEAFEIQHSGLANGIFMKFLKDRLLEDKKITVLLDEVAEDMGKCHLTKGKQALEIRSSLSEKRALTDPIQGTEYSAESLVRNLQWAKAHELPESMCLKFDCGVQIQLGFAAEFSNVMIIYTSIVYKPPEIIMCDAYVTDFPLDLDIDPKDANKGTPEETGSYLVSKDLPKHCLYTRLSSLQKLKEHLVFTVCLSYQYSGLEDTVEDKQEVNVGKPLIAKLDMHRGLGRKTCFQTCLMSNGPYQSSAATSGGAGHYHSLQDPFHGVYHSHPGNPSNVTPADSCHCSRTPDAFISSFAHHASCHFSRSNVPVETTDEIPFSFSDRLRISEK
Test: Inhibition of recombinant Malt1 (unknown origin) at 10 to 1000 uM preincubated for 1 hr followed by (S)-1-((6-(4-(4-(5,5-Difluoro-3,7-bis(4-methoxyphenyl)-5H-4l4,5l4-dipyrrolo[1,2-c:20,10-f][1,3,2]diazaborinin-10-yl)butyl)-1H-1,2,3-triazol-1-yl)hexanoyl)-L-valyl-L-arginyl)-N-((S)-1-fluoro-6-guanidino-2-oxohexan-3-yl)pyrrolidine-2-carboxamide addition and incubated for 1 hr by SDS-PAGE based competitive activity-based protein profiling assay
Measured Attribute: log10(IC50) (log10 of the value in µM)

[[record]]
chem_smiles = "COCCOc1nc(-c2ccccc2)n(-c2ccc(NC(=O)CCl)cc2)n1"
measured_attribute = "log10(IC50)"
observed = 1.99

[[record]]
chem_smiles = "COCCOc1nc(-c2cccc(C)c2)n(-c2ccc(NC(=O)CCl)cc2)n1"
measured_attribute = "log10(IC50)"
observed = 2.44

[[record]]
chem_smiles = "COCCOc1nc(-c2ccc(-c3ccccc3)cc2)n(-c2ccc(NC(=O)CCl)cc2)n1"
measured_attribute = "log10(IC50)"
observed = 1.34

[[record]]
chem_smiles = "COCCOc1nc(-c2ccc(C)cc2)n(-c2ccc(NC(=O)CCl)cc2)n1"
measured_attribute = "log10(IC50)"
observed = 0.95

[[record]]
chem_smiles = "COCCOc1nc(-c2ccc(C)c(C)c2)n(-c2ccc(NC(=O)CCl)cc2)n1"
measured_attribute = "log10(IC50)"
observed = 1.18

[[record]]
chem_smiles = "COCCOc1nc(-c2cccc(OC)c2)n(-c2ccc(NC(=O)CCl)cc2)n1"
measured_attribute = "log10(IC50)"
observed = 2.29

[[record]]
chem_smiles = "COCCOc1nc(-c2ccc(OC)c(OC)c2)n(-c2ccc(NC(=O)CCl)cc2)n1"
measured_attribute = "log10(IC50)"
observed = 1.08

[[record]]
chem_smiles = "COCCOc1nc(-c2ccc(F)c(F)c2)n(-c2ccc(NC(=O)CCl)cc2)n1"
measured_attribute = "log10(IC50)"
observed = 1.41

[[record]]
chem_smiles = "COCCOc1nc(-c2ccc3c(c2)OCO3)n(-c2ccc(NC(=O)CCl)cc2)n1"
measured_attribute = "log10(IC50)"
observed = 1.94

[[record]]
chem_smiles = "COCCOc1nc(-c2cccc(C(F)(F)F)c2)n(-c2ccc(NC(=O)CCl)cc2)n1"
measured_attribute = "log10(IC50)"
observed = 1.97

[[record]]
chem_smiles = "COCCOc1nc(-c2cccc(Cl)c2)n(-c2ccc(NC(=O)CCl)cc2)n1"
measured_attribute = "log10(IC50)"
observed = 1.41

[[record]]
chem_smiles = "COCCOc1nc(-c2ccc(Cl)cc2)n(-c2ccc(NC(=O)CCl)cc2)n1"
measured_attribute = "log10(IC50)"
observed = 0.20

[[record]]
chem_smiles = "COCCOc1nc(-c2cccc(F)c2)n(-c2ccc(NC(=O)CCl)cc2)n1"
measured_attribute = "log10(IC50)"
observed = 1.94

[[record]]
chem_smiles = "C=CC(=O)Nc1ccc(-n2nc(OCCOC)nc2-c2ccc(Cl)c(Cl)c2)cc1"
measured_attribute = "log10(IC50)"
observed = 1.53

[[record]]
chem_smiles = "COCCOc1nc(-c2ccc(C(F)(F)F)cc2)n(-c2ccc(NC(=O)CCl)cc2)n1"
measured_attribute = "log10(IC50)"
observed = 1.34

[[record]]
chem_smiles = "COCCOc1nc(-c2ccc(F)cc2)n(-c2ccc(NC(=O)CCl)cc2)n1"
measured_attribute = "log10(IC50)"
observed = 0.83

[[record]]
chem_smiles = "COCCOc1nc(-c2cccc(Br)c2)n(-c2ccc(NC(=O)CCl)cc2)n1"
measured_attribute = "log10(IC50)"
observed = 1.23

[[record]]
chem_smiles = "COCCOc1nc(-c2ccc(Br)cc2)n(-c2ccc(NC(=O)CCl)cc2)n1"
measured_attribute = "log10(IC50)"
observed = 0.18

[[record]]
chem_smiles = "COCCOc1nc(-c2ccc(OC)cc2)n(-c2ccc(NC(=O)CCl)cc2)n1"
measured_attribute = "log10(IC50)"
observed = 1.65

